Tested on: OVCAR-5
Experiment: NCI 60 cell line panel screen (SRB)
Format: cell-based, human
Conditions: Ovarian Cancer, OVCAR-5
measuredProperty: Log10GI50

Guide cases for Log10GI50, answers given:
Sample C[C@@H]1CC[C@H]2[C@@H](C)C(CC(O)(CC3OC4O[C@]5(C)CC[C@H]6[C@H](C)CC[C@@H]([C@H]3C)C46OO5)c3ccc(C(=O)O)cc3)OC3O[C@]4(C)CCC1C32OO4 (stereo partly drawn) [Compound 11b] ; Log10GI50 observed: <−8.30

The reported value for CC1CCC2C(C)C(CC(O)(CC3OC4OC5(C)CCC6C(C)CCC(C3C)C46OO5)CS(=O)(=O)c3ccc(C(=O)O)cc3)OC3OC4(C)CCC1C32OO4 (stereo not drawn) [Compound 10c] in terms of Log10GI50 is <−8.30

Lab note: measured Log10GI50 of CC1CCC2C(C)C(CC(O)(CO)CC3OC4OC5(C)CCC6C(C)CCC(C3C)C46OO5)OC3OC4(C)CCC1C32OO4 (stereo not drawn) was −4.78

Answer for every listed entry: what is its Log10GI50? The entries follow.
1. CC1CCC2C(C)C(CC(COC(=O)c3cc[n+]([O-])cc3)CC3OC4OC5(C)CCC6C(C)CCC(C3C)C46OO5)OC3OC4(C)CCC1C32OO4 (stereo not drawn)
2. CC(=O)O[C@H]1C(=O)[C@@]2(C)[C@H]([C@H](OC(=O)c3ccccc3)[C@]3(O)C[C@H](OC(=O)[C@H](O)[C@@H](NC(=O)c4ccccc4)c4ccccc4)C(C)=C1C3(C)C)[C@]1(OC(C)=O)CO[C@@H]1C[C@@H]2O [Paclitaxel, paclitaxel, reference compound]
3. C[C@@H]1CC[C@H]2[C@@H](C)C(=O)O[C@@H]3O[C@]4(C)CC[C@@H]1[C@]32OO4

A.
1. <−8.30
2. −9.38
3. >−4.00

----------
Tested on: COLO 205
Test: NCI 60 cell line panel screen (SRB)
Type: cell-based, human
Details: COLO 205 (Colon Cancer); LC50: PG=−50
measuredProperty: Log10LC50

Would you be so kind as to report Log10LC50 for each listed record?
1. CC1CCC2C(C)C(CC(COC(=O)c3cc[n+]([O-])cc3)CC3OC4OC5(C)CCC6C(C)CCC(C3C)C46OO5)OC3OC4(C)CCC1C32OO4 (stereo not drawn)
2. CC(=O)O[C@H]1C(=O)[C@@]2(C)[C@H]([C@H](OC(=O)c3ccccc3)[C@]3(O)C[C@H](OC(=O)[C@H](O)[C@@H](NC(=O)c4ccccc4)c4ccccc4)C(C)=C1C3(C)C)[C@]1(OC(C)=O)CO[C@@H]1C[C@@H]2O [Paclitaxel, paclitaxel, reference compound]

A.
[">−4.30 log10M", ">−4.41 log10M"]

compound CC1CCC2C(C)C(CC(O)(CO)CC3OC4OC5(C)CCC6C(C)CCC(C3C)C46OO5)OC3OC4(C)CCC1C32OO4 (stereo not drawn) , Log10LC50 observed: −4.15 log10M

----------
System: 60 cell line panel
Type: cell-based
Conditions: 60 cell line panel
measuredProperty: Log10LC50 Range

Per the records, this compound ( CC1CCC2C(C)C(CC(COCC(=O)O)CC3OC4OC5(C)CCC6C(C)CCC(C3C)C46OO5)OC3OC4(C)CCC1C32OO4 (stereo not shown) [Compound 12b, bis-trioxane O-acetic acid] ) has Log10LC50 Range equal to 0.72

// sample CC1CCC2C(C)C(CC(COC(=O)CCC(=O)O)CC3OC4OC5(C)CCC6C(C)CCC(C3C)C46OO5)OC3OC4(C)CCC1C32OO4 (stereo not shown) [Compound 8a, bis-trioxane primary succinate monoester] , its Log10LC50 Range was 0.48

Lab book: Log10LC50 Range of C[C@@H]1CC[C@H]2[C@@H](C)C(CC(O)(CC3OC4O[C@]5(C)CC[C@H]6[C@H](C)CC[C@@H]([C@H]3C)C46OO5)c3ccc(C(=O)O)cc3)OC3O[C@]4(C)CCC1C32OO4 (stereo partly shown) [Compound 11b] noted as 1.65

Measured Log10LC50 Range, CC(=O)O[C@H]1C(=O)[C@@]2(C)[C@H]([C@H](OC(=O)c3ccccc3)[C@]3(O)C[C@H](OC(=O)[C@H](O)[C@@H](NC(=O)c4ccccc4)c4ccccc4)C(C)=C1C3(C)C)[C@]1(OC(C)=O)CO[C@@H]1C[C@@H]2O [Paclitaxel, paclitaxel, reference compound] : .045

So, CC1CCC2C(C)C(CC(CO)CC3OC4OC5(C)CCC6C(C)CCC(C3C)C46OO5)OC3OC4(C)CCC1C32OO4 (stereo not shown) [Compound 4, bis-trioxane primary alcohol] ? Its Log10LC50 Range was 1.14

# compound C[C@@H]1CC[C@H]2[C@@H](C)C(=O)O[C@@H]3O[C@]4(C)CC[C@@H]1[C@]32OO4 [Artemisinin] ; its Log10LC50 Range = 0.00

Sure, the documented Log10LC50 Range for CC1CCC2C(C)C(CC(O)(CC3OC4OC5(C)CCC6C(C)CCC(C3C)C46OO5)CS(=O)(=O)c3ccc(C(=O)O)cc3)OC3OC4(C)CCC1C32OO4 (stereo not shown) [Compound 10c] is 1.25

Measured Log10LC50 Range of C[C@@H]1CC[C@H]2[C@@H](C)C(CC(O)(COC(=O)CCC(=O)O)CC3OC4O[C@]5(C)CC[C@H]6[C@H](C)CC[C@@H]([C@H]3C)C46OO5)OC3O[C@]4(C)CCC1C32OO4 (stereo partly shown) [Compound 9, tertiary alcohol primary succinate ester] : 0.30

// each listed compound needs a value for Log10LC50 Range
1. CC1CCC2C(C)C(CC(O)(CO)CC3OC4OC5(C)CCC6C(C)CCC(C3C)C46OO5)OC3OC4(C)CCC1C32OO4 (stereo not shown) [Compound 5, bis-trioxane vicinal diol]
2. CC1CCC2C(C)C(CC(COC(=O)c3cc[n+]([O-])cc3)CC3OC4OC5(C)CCC6C(C)CCC(C3C)C46OO5)OC3OC4(C)CCC1C32OO4 (stereo not shown) [Compound 13]

A.
1: 0.47; 2: 1.49

----------
Test system: 60 cell line panel
Assay type: cell-based
measuredProperty: Log10GI50 Range
Give bare numbers.

Example entries and their recorded answers appear below.
Form field Log10GI50 Range for item CC(=O)O[C@H]1C(=O)[C@@]2(C)[C@H]([C@H](OC(=O)c3ccccc3)[C@]3(O)C[C@H](OC(=O)[C@H](O)[C@@H](NC(=O)c4ccccc4)c4ccccc4)C(C)=C1C3(C)C)[C@]1(OC(C)=O)CO[C@@H]1C[C@@H]2O [Paclitaxel, paclitaxel, reference compound] on 60 cell line panel: 8.00

Hey, 60 cell line panel data for C[C@@H]1CC[C@H]2[C@@H](C)C(CC(O)(COC(=O)CCC(=O)O)CC3OC4O[C@]5(C)CC[C@H]6[C@H](C)CC[C@@H]([C@H]3C)C46OO5)OC3O[C@]4(C)CCC1C32OO4 (stereo partly shown) [Compound 9, tertiary alcohol primary succinate ester] : Log10GI50 Range came out at 3.94

// compound C[C@@H]1CC[C@H]2[C@@H](C)C(CC(O)(CC3OC4O[C@]5(C)CC[C@H]6[C@H](C)CC[C@@H]([C@H]3C)C46OO5)c3ccc(C(=O)O)cc3)OC3O[C@]4(C)CCC1C32OO4 (stereo partly shown) [Compound 11b] , assay 60 cell line panel, Log10GI50 Range value: 3.52

New cases:
Considering CC1CCC2C(C)C(CC(CO)CC3OC4OC5(C)CCC6C(C)CCC(C3C)C46OO5)OC3OC4(C)CCC1C32OO4 (stereo not shown) , its Log10GI50 Range with 60 cell line panel was recorded as 3.20

----------
Please provide measured ED90 for the entries that follow.
Tested on: P. berghei NY malaria parasite
Experiment: Antimalarial efficacies in vivo in mice
Settings: route IV
One number for each entry, in mg/kg × 4.

Value of ED90 reported for the compound CC1CCC2C(C)C(CC(O)(CC3OC4OC5(C)CCC6C(C)CCC(C3C)C46OO5)CS(=O)(=O)c3ccc(C(=O)O)cc3)OC3OC4(C)CCC1C32OO4 (stereo not shown) [Compound 10c] is 10.0

// batch mode: one ED90 value per listed entry
1. C[C@@H]1CC[C@H]2[C@@H](C)C(CC(O)(COC(=O)CCC(=O)O)CC3OC4O[C@]5(C)CC[C@H]6[C@H](C)CC[C@@H]([C@H]3C)C46OO5)OC3O[C@]4(C)CCC1C32OO4 (stereo partly shown) [Compound 9, tertiary alcohol primary succinate ester]
2. CC1CCC2C(C)C(CC(COCC(=O)O)CC3OC4OC5(C)CCC6C(C)CCC(C3C)C46OO5)OC3OC4(C)CCC1C32OO4 (stereo not shown) [Compound 12b, bis-trioxane O-acetic acid]
3. CC1CCC2C(C)C(CC(COC(=O)CCC(=O)O)CC3OC4OC5(C)CCC6C(C)CCC(C3C)C46OO5)OC3OC4(C)CCC1C32OO4 (stereo not shown) [Compound 8a, bis-trioxane primary succinate monoester]

A.
1. 11.0
2. 3.5
3. 6.3

The reported numbers originate from patent US7417156B2.
